Target: Y2 receptors (Homo sapiens, UniProt P49146)
Construct: endogenous in cells; host or cells: KAN-Ts cells (membranes)
Sequence (P49146 whole entry): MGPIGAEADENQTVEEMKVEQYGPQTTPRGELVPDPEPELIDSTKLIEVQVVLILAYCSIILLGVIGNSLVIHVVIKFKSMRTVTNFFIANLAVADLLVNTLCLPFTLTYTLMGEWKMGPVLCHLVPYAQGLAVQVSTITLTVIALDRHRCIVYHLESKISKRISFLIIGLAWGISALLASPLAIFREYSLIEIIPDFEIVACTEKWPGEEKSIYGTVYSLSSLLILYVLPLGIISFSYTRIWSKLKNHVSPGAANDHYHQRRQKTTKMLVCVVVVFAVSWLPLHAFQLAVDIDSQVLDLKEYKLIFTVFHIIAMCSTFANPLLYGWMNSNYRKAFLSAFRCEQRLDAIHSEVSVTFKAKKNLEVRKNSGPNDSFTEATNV
Experiment: Radioligand binding assay ([125I]PYY, KAN-Ts cell membranes)
Details: Table 2, [125I]PYY 80 pM, average of results, read-out: IC50
pIC50: −log10 of the molar value.
result.type: pIC50

[[record]]
compound = "CCC(CC)C(=O)Nc1ccc(N2CCN(C(C(=O)N(CC)CC)c3ccc(F)cc3F)CC2)c(F)c1 (stereo not shown)"
result_number = 6.82

[[record]]
compound = "CCC(CC)C(=O)Nc1cc(F)c(N2CCN(C(C(=O)N(CC)CC)c3ccccc3)CC2)cc1F (stereo not shown)"
result_number = 6.97

[[record]]
compound = "CCC(CC)C(=O)Nc1ccc(N2CCN(C(C(=O)OC)c3ccc(OC)cc3)CC2)c(F)c1 (stereo not shown)"
result_number = 6.60

[[record]]
compound = "CCN(CC)C(=O)C(c1ccccc1)N1CCN(c2ccc(NC(=O)CC3CC3)cc2F)CC1 (stereo not shown)"
result_number = 6.52

[[record]]
compound = "CCC(CC)C(=O)Nc1ccc(N2CCN(C(C(=O)OC)c3ccccc3)C(C(=O)OC)C2)c(F)c1 (single isomer, unassigned; diastereomer 2) [Example 265]"
result_number = 6.22

[[record]]
compound = "CCC(CC)C(=O)Nc1ccc(N2CCN(C(C(=O)N(CC)CC)c3ccccc3)CC2)c(C#N)c1F (stereo not shown)"
result_number = 6.94

[[record]]
compound = "CCN(CC)C(=O)C(c1ccccc1)N1CCN(c2ccc(N3CCN(C(=O)OC)S3(=O)=O)cc2F)CC1 (stereo not shown)"
result_number = 6.23

